Recorded % I (1 μM) for the following compounds
molecular target: canine TRPM8 (Canis lupus familiaris, UniProt Q1A7N1); construct: expressed in transfected cells; experiment: In vitro canine TRPM8 functional assay (Ca2+-sensitive dye, FLIPR/FDSS, icilin activation); assay type: cell-based; settings: 1 μM compound; HEK293 cells expressing canine TRPM8, icilin activation
Sequence (Q1A7N1 1-1104): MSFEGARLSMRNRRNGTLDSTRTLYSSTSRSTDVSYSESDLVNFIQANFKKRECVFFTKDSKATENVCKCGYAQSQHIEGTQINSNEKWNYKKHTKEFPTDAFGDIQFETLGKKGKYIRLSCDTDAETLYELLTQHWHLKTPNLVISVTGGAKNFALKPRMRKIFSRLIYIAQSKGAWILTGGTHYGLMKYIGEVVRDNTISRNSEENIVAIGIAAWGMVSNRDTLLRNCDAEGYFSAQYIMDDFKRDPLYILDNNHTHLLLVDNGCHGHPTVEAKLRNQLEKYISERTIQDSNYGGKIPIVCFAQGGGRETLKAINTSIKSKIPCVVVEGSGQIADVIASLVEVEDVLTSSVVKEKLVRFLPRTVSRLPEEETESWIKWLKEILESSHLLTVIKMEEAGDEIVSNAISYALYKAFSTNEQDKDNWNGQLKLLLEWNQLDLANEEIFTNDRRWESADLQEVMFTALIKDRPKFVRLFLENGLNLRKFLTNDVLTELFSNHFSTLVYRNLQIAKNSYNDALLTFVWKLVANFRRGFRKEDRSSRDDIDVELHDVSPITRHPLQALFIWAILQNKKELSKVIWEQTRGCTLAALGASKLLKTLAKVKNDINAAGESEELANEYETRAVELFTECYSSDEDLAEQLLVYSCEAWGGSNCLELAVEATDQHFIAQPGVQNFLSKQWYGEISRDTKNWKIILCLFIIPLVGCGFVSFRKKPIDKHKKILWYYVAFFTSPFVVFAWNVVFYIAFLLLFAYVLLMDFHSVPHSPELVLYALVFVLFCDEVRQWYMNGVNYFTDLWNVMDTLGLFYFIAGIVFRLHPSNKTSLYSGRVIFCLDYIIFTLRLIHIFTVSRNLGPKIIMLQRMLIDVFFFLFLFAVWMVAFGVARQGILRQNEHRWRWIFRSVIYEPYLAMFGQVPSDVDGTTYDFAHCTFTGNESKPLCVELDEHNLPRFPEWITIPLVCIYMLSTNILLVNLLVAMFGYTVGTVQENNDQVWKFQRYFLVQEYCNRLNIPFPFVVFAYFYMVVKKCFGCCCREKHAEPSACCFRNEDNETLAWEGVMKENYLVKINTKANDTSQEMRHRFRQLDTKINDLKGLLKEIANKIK
Respond with the bare value in %.

CCOP(=O)(OCC)C(Cc1ccccc1C)c1sc2ccccc2c1C (centres unmarked); 100
CC(C)OP(=O)(OC(C)C)C(Cc1cccc(F)c1)c1sc2ccccc2c1Br (centres unmarked); 103
CC(C)OP(=O)(OC(C)C)C(Cc1ccc(F)c(F)c1)c1sc2ccccc2c1C1CCCC1 (centres unmarked); 99
CCOP(=O)(OCC)C(Cc1ccc(F)cc1Cl)c1sc2ccccc2c1C (centres unmarked); 99

In the following, a different compound is considered.
Identify the reported % I (1 μM) for the following entry. CCOP(=O)(OCC)C(Cc1cc(C(F)(F)F)ccc1F)c1sc2ccccc2c1C (centres unmarked)
100

* * *

molecular target: canine TRPM8 (Canis lupus familiaris); construct: expressed in transfected cells; assay: In vitro canine TRPM8 functional assay (Ca2+-sensitive dye, FLIPR/FDSS, icilin activation); assay type: cell-based; conditions: 0.5 μM compound; HEK293 cells expressing canine TRPM8, icilin activation
measured-metric: % I (0.5 μM) (%)
Respond with the bare value in %.

Look over these answered cases.
CCOP(=O)(OCC)C(Cc1ccc(F)c(C(F)(F)F)c1)c1sc2ccccc2c1Cl (racemic) [Cpd 294]; 103
CCOP(=O)(OCC)C(Cc1ccc(F)c(F)c1)c1sc2ccccc2c1-c1cccc(C(N)=O)c1 (racemic); 79
CC(C)OP(=O)(OC(C)C)C(Cc1cccc(Cl)c1)c1sc2ccccc2c1Cl (stereo not drawn); 103
CC(C)OP(=O)(OC(C)C)C(Cc1ccccc1)c1sc2ccccc2c1Cl (stereo not drawn); 103
CCOP(=O)(OCC)C(Cc1cccc(C(F)(F)F)c1Cl)c1sc2ccccc2c1Br (racemic); 103

In the following, a different molecule is considered.
Identify the reported % I (0.5 μM) for the following entry. CCOP(=O)(OCC)C(Cc1ccc(F)c(F)c1)c1sc2cccc(F)c2c1Br (racemic)
102

* * *

target: canine TRPM8 (Canis lupus familiaris); construct: expressed in transfected cells; test: In vitro canine TRPM8 functional assay (Ca2+-sensitive dye, FLIPR/FDSS, icilin activation); assay type: cell-based; details: HEK293 cells expressing canine TRPM8, icilin activation; eight-point dose-response; read-out: IC50
Recorded IC50 for the following compounds
Respond with the bare value in nM.

CCOP(=O)(OCC)C(Cc1ccccc1C)c1sc2ccccc2c1C (stereo not drawn); 108
CCOP(=O)(OCC)C(Cc1ccc(F)c(C(F)(F)F)c1)c1sc2ccccc2c1Cl (racemic) [Cpd 294]; 118

In the following, a different compound is considered.
Identify the reported IC50 for the following entry. CC(C)OP(=O)(OC(C)C)C(Cc1ccccc1F)c1sc2ccccc2c1Br (stereo not drawn)
48

* * *

Recorded % I (1 μM) for the following compounds
Target: canine TRPM8 (Canis lupus familiaris, UniProt Q1A7N1)
Construct: expressed in transfected cells
Assay: In vitro canine TRPM8 functional assay (Ca2+-sensitive dye, FLIPR/FDSS, icilin activation)
Format: cell-based
Details: 1 μM compound; HEK293 cells expressing canine TRPM8, icilin activation
Procedure: The functional activity of compounds of Formula (I) was determined by measuring changes in intracellular calcium concentration using a Ca^2+-sensitive fluorescent dye. The changes in fluorescent signal were monitored by a fluorescence plate reader, either a FLIPR™ (Molecular Devices) or FDSS (Hamamatsu). […] Basal FI was subtracted prior to normalizing data to percent of maximal response. […] Finally, the EC50 and IC50 values were calculated with the best-fit dose curve determined by GraphPad Prism.
Respond with the bare value in %.

Look over these answered cases.
CCOP(=O)(OCC)C(Cc1cccc(Cl)c1F)c1sc2ccccc2c1C (stereo not drawn) [Cpd 23]; 100
CCOP(=O)(OCC)C(Cc1ccc(F)c(F)c1)c1oc2cccc(F)c2c1Br (racemic) [Cpd 206]; 100
CC(C)OP(=O)(OC(C)C)C(Cc1cc(C(F)(F)F)cc(Cl)c1F)c1cc2ccccc2s1 (stereo not drawn) [Cpd 126]; 100
CCOP(=O)(Cc1cc2ccccc2s1)OCc1ccccc1Br (stereo not drawn) [Cpd 110]; 11
CC(C)OP(=O)(OC(C)C)C(Cc1cccc(Cl)c1)c1cc2ccccc2s1 (stereo not drawn) [Cpd 134]; 101
CC(C)OP(=O)(OC(C)C)C(Cc1ccccc1F)c1sc2ccccc2c1Br (stereo not drawn) [Cpd 196]; 100
CCOP(=O)(OCC)C(Cc1ccc(Br)cc1)c1cc2ccccc2s1 (stereo not drawn) [Cpd 70]; 82
CCOP(=O)(OCC)C(Cc1ccc2ccccc2c1)c1sc2ccccc2c1C (stereo not drawn) [Cpd 46]; 99

In the following, a different compound is considered.
Specify % I (1 μM) for CCOP(=O)(OCC)C(Cc1cc(F)cc(C(F)(F)F)c1)c1sc2ccccc2c1C (stereo not drawn) [Cpd 56] , system canine TRPM8 (Canis lupus familiaris, UniProt Q1A7N1).
103
